Biological target: vitronectin receptor αvβ3 (Homo sapiens, UniProt P05106+P06756)
Sequence (P06756 31-889 limits assumed): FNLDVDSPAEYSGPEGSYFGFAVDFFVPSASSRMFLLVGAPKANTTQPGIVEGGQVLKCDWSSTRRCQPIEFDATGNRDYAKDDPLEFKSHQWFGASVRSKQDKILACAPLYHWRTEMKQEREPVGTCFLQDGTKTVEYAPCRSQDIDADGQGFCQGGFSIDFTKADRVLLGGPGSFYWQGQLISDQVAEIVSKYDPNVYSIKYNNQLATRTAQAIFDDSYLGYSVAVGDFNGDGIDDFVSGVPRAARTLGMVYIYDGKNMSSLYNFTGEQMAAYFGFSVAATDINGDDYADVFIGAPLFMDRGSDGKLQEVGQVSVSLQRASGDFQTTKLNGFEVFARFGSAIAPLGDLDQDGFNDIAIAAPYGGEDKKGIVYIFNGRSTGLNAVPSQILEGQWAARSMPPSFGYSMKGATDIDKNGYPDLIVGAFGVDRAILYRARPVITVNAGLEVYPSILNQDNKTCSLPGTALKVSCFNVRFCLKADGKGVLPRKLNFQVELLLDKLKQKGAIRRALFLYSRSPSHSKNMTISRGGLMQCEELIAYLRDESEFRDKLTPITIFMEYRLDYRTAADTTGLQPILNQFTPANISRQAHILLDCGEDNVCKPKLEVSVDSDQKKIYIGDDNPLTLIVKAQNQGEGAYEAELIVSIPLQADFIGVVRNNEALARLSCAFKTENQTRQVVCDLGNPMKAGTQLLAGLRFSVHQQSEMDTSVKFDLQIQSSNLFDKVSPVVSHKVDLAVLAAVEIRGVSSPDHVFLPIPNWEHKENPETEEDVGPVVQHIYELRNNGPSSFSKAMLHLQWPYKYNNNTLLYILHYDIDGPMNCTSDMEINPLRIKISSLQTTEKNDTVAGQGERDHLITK
Sequence (P06756 891-1048 partner limits assumed): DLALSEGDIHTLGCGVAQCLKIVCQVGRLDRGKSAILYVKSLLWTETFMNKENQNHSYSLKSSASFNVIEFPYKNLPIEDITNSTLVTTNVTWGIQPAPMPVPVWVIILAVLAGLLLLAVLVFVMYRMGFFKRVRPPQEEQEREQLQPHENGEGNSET
Sequence (P05106 27-788): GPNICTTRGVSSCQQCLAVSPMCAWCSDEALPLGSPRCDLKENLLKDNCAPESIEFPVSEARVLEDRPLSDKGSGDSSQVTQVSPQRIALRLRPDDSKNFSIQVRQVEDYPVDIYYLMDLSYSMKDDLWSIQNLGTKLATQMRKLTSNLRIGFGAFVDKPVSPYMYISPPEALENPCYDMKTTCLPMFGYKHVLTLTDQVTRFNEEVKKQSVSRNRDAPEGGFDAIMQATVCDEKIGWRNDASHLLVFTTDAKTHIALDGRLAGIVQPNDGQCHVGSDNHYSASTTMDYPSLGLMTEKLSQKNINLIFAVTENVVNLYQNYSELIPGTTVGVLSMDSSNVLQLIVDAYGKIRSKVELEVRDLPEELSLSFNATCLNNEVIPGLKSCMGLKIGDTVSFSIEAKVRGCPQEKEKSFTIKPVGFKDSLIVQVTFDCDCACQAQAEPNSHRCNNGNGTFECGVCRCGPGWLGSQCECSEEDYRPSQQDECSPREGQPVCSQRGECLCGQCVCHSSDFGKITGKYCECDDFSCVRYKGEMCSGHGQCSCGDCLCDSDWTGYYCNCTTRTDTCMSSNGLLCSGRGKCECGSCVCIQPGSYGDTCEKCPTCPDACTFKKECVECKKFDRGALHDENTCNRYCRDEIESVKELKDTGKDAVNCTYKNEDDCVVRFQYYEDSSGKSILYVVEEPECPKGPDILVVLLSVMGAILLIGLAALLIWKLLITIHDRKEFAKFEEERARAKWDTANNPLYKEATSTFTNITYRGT
Experiment: Inhibition of binding of 293 cells to human vitronectin (Vn/293 cell test)
Conditions: 293 cells cotransfected with αv and β3 subunits; plate coated with human vitronectin; 90 minutes at 37° C.
quantity-measured: IC50 (nM)

Sample answers from the record:
>>> experimental_result("CCCc1ccc(S(=O)(=O)N[C@@H](CNC(=O)c2ccc(CCC(=O)NC3=NCCCN3)cc2)C(=O)O)cc1")
20
>>> experimental_result("CC(=O)Nc1ccc(S(=O)(=O)N[C@@H](CNC(=O)c2ccc(CCC(=O)NC3=NCCCN3)cc2)C(=O)O)cc1")
27
>>> experimental_result("COc1ccc(S(=O)(=O)N[C@@H](CNC(=O)c2ccc(CCC(=O)NC3=NCCCN3)cc2)C(=O)O)cc1")
26

I = O=C(CCc1ccc(C(=O)NC[C@H](NS(=O)(=O)c2ccc(Cl)cc2)C(=O)O)cc1)NC1=NCCCN1
II = CS(=O)(=O)N[C@@H](CNC(=O)c1ccc(CCC(=O)NC2=NCCCN2)cc1)C(=O)O
III = CC(C)(C)c1ccc(S(=O)(=O)N[C@@H](CNC(=O)c2ccc(CCC(=O)NC3=NCCCN3)cc2)C(=O)O)cc1
IN: Place the items in sequence of falling IC50. Lab note: final answer is the ordered label list.
OUT: II, I, III

Data provenance: patent US6747148B2
